Could you please report measured IC50 for the items listed next?
# Species: Homo sapiens
# experiment notes: In vitro inhibition of LTB4 formation in human whole blood(HWB)
# Type: functional
One number for each entry, in µM.

>>> recorded_value("CC(c1cc2ccccc2s1)N(O)C(N)=O (centres undefined) [ZILEUTON]")
2
>>> recorded_value("COC1(c2cccc(OCc3ccc4c(-c5ccccc5)c5c(cc4c3)C(=O)OC5)c2)CCOCC1")
0.05
>>> recorded_value("COC1(c2cccc(COc3ccc4ccccc4c3)c2)CCOCC1")
1.5
>>> recorded_value("COC1(c2cccc(OCc3ccc4ccccc4c3)c2)CCOCC1")
0.06
>>> recorded_value("CCC(OC)(c1cccc(COc2ccc3c(-c4ccccc4)c4c(cc3c2)C(=O)OC4)c1)c1nccs1 (centres undefined)")
1.4

Value sought for every listed compound: IC50.
1. CCC(OC)(c1cccc(OCc2ccc3ccccc3c2)c1)c1nccs1 (centres undefined) [ZM-211965]
2. CCC(OC)(c1cccc(OCc2ccc3c(-c4ccccc4)c4c(cc3c2)C(=O)OC4)c1)c1nccs1 (centres undefined)

Solution:
1. 0.7
2. 0.7

Recorded result, `COC1(c2cccc(COc3ccc4c(-c5ccccc5)c5c(cc4c3)C(=O)OC5)c2)CCOCC1` , IC50: 0.05
